Measured values drawn from PubChem BioAssay for this set.

- Subject of test: Torsin-1A (Homo sapiens) (UniProt O14656)
- Sequence (O14656 whole entry, looked up): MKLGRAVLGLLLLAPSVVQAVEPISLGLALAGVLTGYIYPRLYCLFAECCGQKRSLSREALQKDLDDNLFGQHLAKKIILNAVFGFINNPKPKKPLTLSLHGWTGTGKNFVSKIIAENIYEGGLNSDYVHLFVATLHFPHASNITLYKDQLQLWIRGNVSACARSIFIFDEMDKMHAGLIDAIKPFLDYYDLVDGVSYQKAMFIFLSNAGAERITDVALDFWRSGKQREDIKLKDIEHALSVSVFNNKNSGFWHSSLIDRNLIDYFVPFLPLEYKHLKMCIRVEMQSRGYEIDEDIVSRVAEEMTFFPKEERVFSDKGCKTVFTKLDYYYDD
- Test details: torsin A mutant lysate binding on microarrays – cell lysate, small-molecule microarray, COS7 lysate, 635/667 nm fluorescence, primary screen (AID 1150);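 further: score pools 667 nm emission and signal to noise measuring lysate protein binding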
- Condition context: COS7 hTOR1A mutant lysate, 635 nm fluorescence, higher = more signal
Each entry below lists one item and its recorded composite z-score value.

{"Compound": "CCCNC(=O)[C@@]1(c2ccc([N+](=O)[O-])cc2)CC(=O)N(C(C)C)[C@@H]1c1ccc(CO)cc1", "composite z-score": -0.42}
{"Compound": "COc1ccc(C(=O)Nc2cccc(CN3C(=O)[C@@]4(O[C@@H](CC(=O)N5CCC[C@H]5CO)[C@H]([Si](C)(C)c5ccc(OC)cc5)[C@H]4C)c4ccccc43)c2)cc1", "composite z-score": 1.15}
{"Compound": "CC1CC/C=C\\[C@H]2OC34C=CCN(C(C)(C)C)C(=O)[C@H]3N(CCCO)C(=O)[C@@H]4C2C(=O)O1 (some centres not stated)", "composite z-score": 2.01}
{"Compound": "CCCCC(O)C1C=CC2C(=O)N(c3ccccc3)C(=O)C2N1Nc1ccccc1 (configuration not stated)", "composite z-score": 0.0691}
{"Compound": "CC(C)N1C(=O)c2ccccc2[C@](C)(C(=O)NCC(F)(F)F)[C@@H]1c1ccc(CO)cc1", "composite z-score": 0.33}
{"Compound": "Cc1ccc(S[C@]2(C(=O)NCCCN(C)C)CC(=O)N(Cc3ccccc3C(F)(F)F)[C@@H]2c2ccc(CO)cc2I)cc1", "composite z-score": -0.144}
{"Compound": "O=C1C=C(c2ccccc2)C(=O)C2=C1CC([C@H]1Oc3ccccc3S(=O)(=O)N3CCC[C@@H]13)=CC2", "composite z-score": -0.495}

---

- Subject of test: Concanavalin-A (Canavalia ensiformis)
- Test details: compounds binding concanavalin A lectin – biochemical, small-molecule microarray, Alexa647 label, 635 nm, artefact control for SMM control protein annotation, primary screen (AID 1127);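 further: z combines 667 nm emission intensity with signal-to-noise across three replicate slides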
- Condition context: ConA-A647 binding fluorescence, higher = more signal

{"Compound": "CC(C)N1C(=O)c2ccccc2[C@@H](C(=O)NCC(F)(F)F)[C@@H]1c1ccc(CO)cc1", "composite z-score": 0.104}
{"Compound": "[N-]=[N+]=Nc1ccccc1C[C@@]1(C(=O)NCc2ccccc2)N=C(c2ccc(OCCCO)cc2)O[C@@H]1c1ccccc1N=[N+]=[N-]", "composite z-score": 1.12}
{"Compound": "COC(=O)[C@H](Cc1ccccc1)N1CC2=CCCC=C[C@@H]2[C@H]1[C@H](O)Cc1ccccc1", "composite z-score": 0.854}
{"Compound": "COC(=O)C(CC#Cc1ccc2c(c1)[C@]1(C(=O)N2)[C@H](c2ccc(OCCO)cc2)N2[C@H](c3ccccc3)[C@H](c3ccccc3)OC(=O)[C@H]2[C@@H]1C(=O)N1CCCCCCC1)C(=O)OC", "composite z-score": 1.21}
{"Compound": "COC(=O)[C@@]1(Cc2ccc(OC)cc2)[C@H]2c3cc(C(=O)N(C)C)[nH]c3C[C@H]2CN1C(=O)c1ccccc1", "composite z-score": 0.0575}
{"Compound": "COc1ccc(C(O)C2C=CC3C(=O)N(C)C(=O)C3N2N(c2ccccc2)c2ccccc2)cc1 (stereo not given)", "composite z-score": 0.632}
{"Compound": "CN1C(=O)C2C=CC(C(O)c3ccc(-c4ccccc4)s3)N(NC(=O)OC(C)(C)C)C2C1=O (stereo not given)", "composite z-score": 0.996}
{"Compound": "CCCCC(O)C1C=CC2C(=O)N(c3ccccc3)C(=O)C2N1Nc1ccc([N+](=O)[O-])cc1 (stereo not given)", "composite z-score": 1.02}
{"Compound": "O=C(O)[C@H](Cc1ccccc1)n1cc(C2(O)CCCCC2)nn1", "composite z-score": 0.463}
{"Compound": "C[C@@H]1ON(c2ccccc2)[C@H](c2ccccc2)[C@H]1C(=O)O", "composite z-score": -0.0755}
{"Compound": "C[N+](C)(C)CCCC[C@@H]1NC(=O)[C@@H]2C[C@H](C(=O)NCc3ccc(F)cc3)[C@H](c3ccc(O)cc3)N2C1=O", "composite z-score": 0.607}
{"Compound": "CC(C)[Si](C#CCCc1ccccc1)(O[C@H](c1ccccc1)c1cn(Cc2ccccc2)nn1)C(C)C", "composite z-score": 0.949}
{"Compound": "CCOC(=O)C1=C[C@@H](C(C)(C)C)N(S(=O)(=O)c2ccc(C)cc2)[C@H]1c1ccc(C#N)cc1", "composite z-score": 1.09}
{"Compound": "COCCOC(=O)N1C(=O)[C@@]2(c3ccccc31)[C@H](C(=O)N1CCN(c3ncccn3)CC1)[C@H]1C(=O)O[C@H](c3ccccc3)[C@H](c3ccccc3)N1[C@@H]2c1ccccc1OCCO", "composite z-score": 1.05}
{"Compound": "C=C(C)[C@@H]1CC=C(C(O)C2C=CC3C(=O)N(C)C(=O)C3N2Nc2ccc([N+](=O)[O-])cc2[N+](=O)[O-])CC1 (stereo not given in full)", "composite z-score": 1.14}
